- Test system: DU-145 prostate
- run_description: NCI-60 one-dose screen, 48 h (100 = growth as untreated, 0 = no growth, -100 = all killed)
- settings: 10 µM unless noted
Compounds without any hit were thinned out: in the full panel of roughly 83,000, 20% have a hit.
parameter: growth (%)
Provide only the numeric value, understood in %.

// COc1cccc(-c2nc(-c3ccc(NC(=O)C(C)C)cc3)[nH]c2-c2ccnc(Br)c2)c1 : growth value = 61.4

Entry Cc1nc(/N=C(\N)NC(=O)Nc2cccc(Cl)c2)sc1C — recorded growth = 90

Short answer for Clc1ccc2c(c1)N(CCCN1CCCC1)c1ccccc1S2 : growth was 59.1

growth measured on CCOC(=O)c1c(C)oc2ncnc(N3CCN(C(=O)COc4ccc(C(C)(C)C)cc4)CC3)c12 = 87.5

growth for COc1cc(C2CC(c3ccc(SC)cc3)=NN2C(C)=O)cc(OC)c1OC (stereo not given) is 91
